Ref: PubChem BioAssay (NCI)

System: UACC-257 melanoma
assay text: NCI-60 one-dose screen, 48 h
condition summary: 10 µM unless noted
The panel holds about 83,000 compounds, 20% with a hit somewhere; the sample as a whole holds those more often. Activity calls are given as the source filed them. The calls were made as follows: active = growth percent below 10; inactive = the rest.
The categories you may choose from are active, inactive

Hi, sorry to bother you, what did the test record for Cc1c(O)c(N=Nc2ccc(C(=O)O)c(O)c2)c2ccccc2c1O ?
inactive

Hi, sorry to bother you, what did the test record for O=C(/C=C\c1ccccc1Cl)c1ccccc1 ?
inactive

Hi, sorry to bother you, what did the test record for CNc1ccc(Nc2ccc(S(=O)(=O)O)cc2)c2c1C(=O)c1ccccc1C2=O ?
inactive

###

Test system: CAKI-1 renal
assay text: NCI-60 one-dose screen, 48 h (100 = growth as untreated, 0 = no growth, -100 = all killed)
condition summary: 10 µM unless noted
This is part of a sample that, as a whole, favours compounds with a hit. Of some 83,000 tested, about 20% had one in any assay.
Each record here notes measured growth.
// note: answer is a bare numeric in %

Solved entries:
Cc1ccc(S(=O)(=O)Nc2cccc(Cn3c(=O)[nH]c4ccc(Oc5ncccn5)cc4c3=O)c2)cc1 :: 92.9
OCC(O)C(O)CC1SCCS1 (stereo unspecified) :: 98
O=S(=O)(O)CCI :: 107

Note to self: growth recorded for CC1(C)Oc2cc3oc(=O)ccc3cc2C[C@@H]1OCCOS(=O)(=O)c1ccc(C#N)cc1 was 86.3

Note to self: growth recorded for COc1cc2c(c(OC)c1OC)C(=O)CC(c1cccc(C(=O)Nc3cccc(Br)c3)c1)O2 (stereo unspecified) was 85.3

Note to self: growth recorded for CN1CCN(Cc2ccc(NC(=O)c3ccc(C#Cc4c(N)ncc5ccc(F)cc45)cc3)cc2C(F)(F)F)CC1 was 42.7

Note to self: growth recorded for O=C(CCC(=O)N(CCO)CCO)N(CCO)CCO was 93.3
